// data source = ChEMBL document CHEMBL4229566

protocol: Blood clearance in Wistar Han rat at 1 mg/kg, iv via 30 mins infusion followed by 2 day washout and re-dosed via oral gavage at 3 mg/kg
Format: ADME, organism-based
assay_setup: whole blood
metric: clearance

Challenge: Recorded clearance for Cc1cc(C)n(-c2cccc([C@H](CC(=O)O)CN3CC[C@@H](CCc4ccc5c(n4)NCCC5)C3)c2)n1 [GSK-3008348 FREE BASE] , please?
Response given: 51 to 60 mL/min/kg

----------
protocol: in vivo
assay_setup: Wistar Han, rat, inhaled or intranasal, 0.227 mg/kg
Description: Tmax in Wistar Han rat nebulized with dose level of 0.227 mg/kg
metric: Tmax (min)
Write it as a number; the unit min goes unstated.

Challenge: Recorded Tmax for Cc1cc(C)n(-c2cccc([C@H](CC(=O)O)CN3CC[C@@H](CCc4ccc5c(n4)NCCC5)C3)c2)n1 [GSK-3008348 FREE BASE] , please?
Response given: 12

----------
target_desc: Voltage-gated inwardly rectifying potassium channel KCNH2 (Homo sapiens)
Sequence (Q12809 whole entry): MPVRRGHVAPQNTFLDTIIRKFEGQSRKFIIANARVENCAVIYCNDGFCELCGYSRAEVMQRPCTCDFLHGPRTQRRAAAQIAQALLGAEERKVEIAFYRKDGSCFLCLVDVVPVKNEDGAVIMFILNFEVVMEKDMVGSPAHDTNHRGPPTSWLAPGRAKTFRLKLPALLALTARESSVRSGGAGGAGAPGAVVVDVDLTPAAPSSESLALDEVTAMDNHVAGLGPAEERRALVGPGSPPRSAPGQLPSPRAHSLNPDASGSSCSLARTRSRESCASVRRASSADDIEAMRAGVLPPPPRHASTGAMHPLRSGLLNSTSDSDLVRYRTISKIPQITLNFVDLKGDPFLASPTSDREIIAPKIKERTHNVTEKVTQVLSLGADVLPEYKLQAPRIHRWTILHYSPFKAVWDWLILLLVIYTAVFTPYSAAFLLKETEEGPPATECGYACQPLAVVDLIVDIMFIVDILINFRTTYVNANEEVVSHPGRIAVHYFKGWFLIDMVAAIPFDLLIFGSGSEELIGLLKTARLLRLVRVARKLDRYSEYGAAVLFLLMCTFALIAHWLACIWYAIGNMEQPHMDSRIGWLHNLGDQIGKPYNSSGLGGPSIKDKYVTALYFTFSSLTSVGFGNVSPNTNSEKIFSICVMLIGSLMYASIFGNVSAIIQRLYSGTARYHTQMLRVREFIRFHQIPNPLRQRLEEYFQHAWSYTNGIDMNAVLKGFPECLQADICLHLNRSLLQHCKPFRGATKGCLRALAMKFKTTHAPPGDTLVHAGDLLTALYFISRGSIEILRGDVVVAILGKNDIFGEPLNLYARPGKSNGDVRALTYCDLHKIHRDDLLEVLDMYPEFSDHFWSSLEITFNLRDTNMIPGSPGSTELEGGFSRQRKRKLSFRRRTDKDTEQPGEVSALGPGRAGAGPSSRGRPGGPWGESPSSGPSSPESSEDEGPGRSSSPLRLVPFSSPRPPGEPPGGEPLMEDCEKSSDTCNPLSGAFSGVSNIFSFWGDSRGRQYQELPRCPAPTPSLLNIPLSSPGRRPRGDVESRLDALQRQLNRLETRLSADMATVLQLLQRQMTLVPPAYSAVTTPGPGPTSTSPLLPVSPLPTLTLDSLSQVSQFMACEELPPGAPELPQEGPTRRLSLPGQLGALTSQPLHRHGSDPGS
List of IC50 values.

In the examples that follow, each entry is paired with its recorded IC50.
* O=C(O)C[C@H](CN1CC[C@@H](CCc2ccc3c(n2)NCCC3)C1)c1cccc(-n2cnnc2)c1 | > 31.6 µM
* O=C(O)C[C@H](CN1CC[C@@H](CCc2ccc3c(n2)NCCC3)C1)c1cccc(OC2COC2)c1 | > 31.6 µM

Now let's try a different one.
Challenge: Recorded IC50 for `O=C(O)C[C@H](CN1CC[C@@H](CCc2ccc3c(n2)NCCC3)C1)c1cccc(-n2cncn2)c1` , please?
Response given: > 31.6 µM
